Origin of the recorded values: PubChem BioAssay AID1777

# SUBJECT_OF_TEST: Kappa-type opioid receptor (Homo sapiens)
# ASSAY_EXPLANATION: KOR agonists, beta-arrestin recruitment, primary screen, cell-based, luminescence, uHTS (AID 1777)
# MEASUREMENT_PARAMETERS: at 10 µM, stronger effect = higher value
Screen size: about 280,000 compounds; about 50 (0.02%) were called active. The sample holds actives, similar compounds and a random draw of the others, so the mix is not that of the screen. Potency and affinity values are given separately.
READOUT_LABEL: activation (%)
Numbers only, in %.

- SUBSTANCE_SMILES: "O=C(c1cnccn1)N(Cc1ccco1)C1(C(=O)NC2CCCC2)CCCCC1"
  MEASUREMENT_UNIT: "%"
  activation: -9

Here are 7 molecules. What values of activation were reported for them?
1. O=C(c1ccc(Cl)cc1)N(Cc1ccccc1F)N1C(=O)CCCC1=O
2. Cc1cc(Nc2ccc(Cl)cc2)n2ncnc2n1
3. C(=C\c1ccccc1)/CSc1nnc(-c2cnccn2)n1Cc1ccco1
4. Nc1ccc(C2(c3ccc(N)cc3)C(=O)Nc3ccccc32)cc1
5. Clc1ccccc1CSc1nnc(-c2ccccn2)n1Cc1ccco1
6. CCn1c(=O)c(C2=NS(=O)(=O)c3ccccc3N2)c(O)c2ccccc21
7. CCOc1ccccc1NC(=O)CCn1cccc1

Ans.
[-0.9, -0.8, 16.2, 0.1, 31.6, 54.2, -0.4]

Could you tell me activation for each of these molecules? They are listed below.
1. CCn1c(=O)c(-c2cc(=O)[nH][nH]2)c(O)c2ccccc21
2. CCCSc1nnc2n(Cc3ccccc3)c(=O)c3c4c(sc3n12)CCC4
3. CNC(=S)N(CCc1c(C)[nH]c2ccc(Cl)cc12)Cc1cccnc1

Ans.
1: 2.3; 2: 69.7; 3: -1
